All values here come from patent US9346809B2.

EC50 reference
# system name: JAK2 (catalytic domain, His-tag) (Homo sapiens, UniProt O60674)
# Construct: All four purified enzymes contain only the catalytic domain; His (N); purchased Carna Biosciences, Inc; host or cells: baculovirus expression system
# Sequence (O60674 849-1124 limits assumed): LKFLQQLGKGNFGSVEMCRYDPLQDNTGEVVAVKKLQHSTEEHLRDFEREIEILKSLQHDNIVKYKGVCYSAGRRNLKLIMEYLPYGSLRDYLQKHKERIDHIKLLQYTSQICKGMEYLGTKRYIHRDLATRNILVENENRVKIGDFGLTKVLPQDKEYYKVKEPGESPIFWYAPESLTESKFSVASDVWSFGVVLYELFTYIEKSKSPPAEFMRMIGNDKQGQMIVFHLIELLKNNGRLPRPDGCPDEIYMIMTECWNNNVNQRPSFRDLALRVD
# run description: JAK kinase assay (HTRF, phosphorylation of TK substrate-biotin), JAK2
# Format: biochemical
# run conditions: ATP at Km (4 μM); read-out: JAK2 kinase inhibitory activity (EC50 indicator)

Problem: What does the data say about its EC50? Entry: O=C(c1ccc(C(F)(F)F)cc1)N1[C@@H]2CC[C@H]1CN(c1ncnc3[nH]ccc13)C2 [Example 1]
Result: 100 to 500 nM

Problem: What does the data say about its EC50? Entry: CC(=O)c1cc(C(=O)N2[C@@H]3CC[C@H]2CN(c2ncnc4[nH]ccc24)C3)cs1 [Example 112]
Result: < 100 nM

Problem: What does the data say about its EC50? Entry: N#CCc1ccc(C(=O)N2[C@@H]3CC[C@@H]2CN(c2ncnc4[nH]ccc24)C3)cc1 [Example 175]
Result: < 100 nM

Problem: What does the data say about its EC50? Entry: CN(CCC#N)C(=O)C1(C(=O)N2CCN(c3ncnc4[nH]ccc34)CC23CC3)CC1 [Example 87]
Result: > 500 nM

Problem: What does the data say about its EC50? Entry: O=C(c1cccc(-c2ccccc2)c1)N1[C@@H]2CC[C@@H]1CN(c1ncnc3[nH]ccc13)C2 [Example 178]
Result: 100 to 500 nM

Problem: What does the data say about its EC50? Entry: CC1CN(C(=O)c2ccc(C#N)cc2)C2(CC2)CN1c1ncnc2[nH]ccc12 (centres unmarked) [Example 148]
Result: < 100 nM

Problem: What does the data say about its EC50? Entry: O=C(C1CCOC1)N1CCN(c2ncnc3[nH]ccc23)CC12CC2 (centres unmarked) [Example 7]
Result: < 100 nM

Next molecule, EC50 to be filled in.
Problem: What does the data say about its EC50? Entry: Cc1c[nH]c2ncnc(N3CCN(C(=O)c4cnc5ccccc5n4)C4(CC4)C3)c12 [Example 120]
Result: > 500 nM
